Assay: Pharmacokinetics after single ear canal administration: concentration in perilymph (Examples 1 and 2)
Details: rat, in vivo
Experimental: Pharmacokinetics study of different active agents has been conducted with ready-to-use formulations. […] 4. […] The exact volume of administration was determined during this first test and delivered (volume of 20 μL). […] The diffusion trough the tympanic membrane and into the inner ear and was assessed with the dosage of the perilymph sampling. […] 5. […] The concentration of amitriptyline in plasma was assessed. […]
observable: Presence within the inner ear (perilymph)

O=c1cc(-c2ccccc2)oc2c(O)c(O)ccc12 [7,8-dihydroxyflavone]	present
CN(C)CCC=C1c2ccccc2CCc2ccccc21	present
CCCN(CCC)CCc1cccc2c1CC(=O)N2	present
C[C@@H]1C[C@H]2[C@@H]3CCC4=CC(=O)C=C[C@]4(C)[C@@]3(F)[C@@H](O)C[C@]2(C)[C@@]1(O)C(=O)CO	present

Please find the next compound below.
// field: Presence within the inner ear (perilymph); key: CCCN[C@H]1CCc2nc(N)sc2C1 [pramipexole] ; value = present

All figures here come from patent US20240016766A1.
